These entries and their values trace back to patent US20260152557A1.

biological target: T1, human CD3εδ-Fc heterodimer (Hu CD3ε Fc / CD3δ Fc-HIS) (human, UniProt P04234 22-100); experiment: BLI (Octet), yeast-produced IgG on AHC sensor, CD3εδ-Fc 100 nM in solution, pH 6.0
T1 construct: range 22-100; Produced in HEK 293 cells with a heterologous signal peptide; heterodimer purified by Ni Sepharose and Mono Q; also called Hu CD3εδ Fc heterodimer; CD3εδ Fc-HIS heterodimer; not shown: Fc-HIS part of CD3δ Fc-HIS
T1 sequence (chain, as listed by the source mutant, form in doubt, chain 1 of 2): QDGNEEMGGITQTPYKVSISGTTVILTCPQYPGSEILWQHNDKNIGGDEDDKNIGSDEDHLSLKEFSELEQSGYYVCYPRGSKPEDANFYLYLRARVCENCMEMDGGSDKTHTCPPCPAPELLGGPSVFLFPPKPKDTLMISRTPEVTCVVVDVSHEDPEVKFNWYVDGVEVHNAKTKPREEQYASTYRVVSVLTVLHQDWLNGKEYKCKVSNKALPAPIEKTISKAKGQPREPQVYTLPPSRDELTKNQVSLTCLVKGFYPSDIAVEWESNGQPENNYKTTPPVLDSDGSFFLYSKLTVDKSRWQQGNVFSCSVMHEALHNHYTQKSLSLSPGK
T1 sequence (P04234 22-100, stated change not applied, form in doubt, chain 2 of 2): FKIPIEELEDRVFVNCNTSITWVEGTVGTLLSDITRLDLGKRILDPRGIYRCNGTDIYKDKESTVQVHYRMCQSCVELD
# Lookup of reported Kd keyed by entry
State the answer as a number, implicitly in nM.

binder	Kd, nM
ADI-74965 (Antibody No. 3), human IgG1 (antibody, V domains shown, Tested as human IgG1 (yeast-produced aglycosylated, or CHO-produced)) VH: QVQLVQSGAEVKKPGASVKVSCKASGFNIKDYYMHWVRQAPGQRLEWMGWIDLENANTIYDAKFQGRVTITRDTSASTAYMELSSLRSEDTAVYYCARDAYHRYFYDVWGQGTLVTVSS VL: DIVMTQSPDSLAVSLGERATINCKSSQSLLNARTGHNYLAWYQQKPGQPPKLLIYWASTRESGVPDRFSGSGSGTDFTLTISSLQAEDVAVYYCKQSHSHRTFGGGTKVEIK	6.68
ADI-79845 (Antibody No. 11), human IgG1 (antibody, V domains shown, Tested as yeast-produced aglycosylated human IgG1) VH: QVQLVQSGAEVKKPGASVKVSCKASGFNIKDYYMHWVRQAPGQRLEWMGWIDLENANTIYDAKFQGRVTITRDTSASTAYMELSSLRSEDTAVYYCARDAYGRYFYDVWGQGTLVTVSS VL: DIVMTQSPDSLAVSLGERATINCKSSQSLLNARTGKNYLAWYQQKPGQPPKLLIYWASTRESGVPDRFSGSGSGTDFTLTISSLQAEDVAVYYCKQSYSHRTFGGGTKVEIK	1.04
ADI-79843 (Antibody No. 8), human IgG1 (antibody, V domains shown, Tested as yeast-produced aglycosylated human IgG1) VH: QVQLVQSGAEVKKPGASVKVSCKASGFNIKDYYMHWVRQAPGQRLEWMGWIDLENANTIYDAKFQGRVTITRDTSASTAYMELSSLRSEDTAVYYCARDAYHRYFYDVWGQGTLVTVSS VL: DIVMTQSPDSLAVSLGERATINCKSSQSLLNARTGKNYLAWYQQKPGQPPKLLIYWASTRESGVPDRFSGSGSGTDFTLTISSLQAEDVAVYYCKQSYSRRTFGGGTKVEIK	1.6
ADI-74967 (Antibody No. 5), human IgG1 (antibody, V domains shown, Tested as human IgG1 (yeast-produced aglycosylated, or CHO-produced)) VH: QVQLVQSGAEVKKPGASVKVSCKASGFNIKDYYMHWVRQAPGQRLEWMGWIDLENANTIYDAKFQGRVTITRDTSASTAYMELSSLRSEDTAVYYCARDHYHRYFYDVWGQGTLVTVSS VL: GIVMTQSPDSLAVSLGERATINCKSSQSLLNARTGKNYLAWYQQKPGQPPKLLIYWASTRESGVPDRFSGSGSGTDFTLTISSLQAEDVAVYYCKQSHSHRTFGGGTKVEIK	5.94

Proceed to the following item.
What does the data say about its Kd? Entry: ADI-79844 (Antibody No. 10), human IgG1 (antibody, V domains shown, Tested as yeast-produced aglycosylated human IgG1) VH: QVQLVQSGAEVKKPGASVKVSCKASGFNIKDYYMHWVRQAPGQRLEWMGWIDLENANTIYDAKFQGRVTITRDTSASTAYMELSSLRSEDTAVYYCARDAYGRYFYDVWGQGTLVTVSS VL: DIVMTQSPDSLAVSLGERATINCKSSQSLLNARTGKNYLAWYQQKPGQPPKLLIYWASTRESGVPDRFSGSGSGTDFTLTISSLQAEDVAVYYCKQSHSRRTFGGGTKVEIK
3.6
